# System: MIA PaCa-2 cells with Kras G12C mutation
# assay: Cell proliferation inhibition experiment, 3D spheroid, CellTiter-Glo (Test Example 3)
# Assay type: cell-based, human
# appliedConditions: Homo sapiens, MIA PaCa-2, 120 h, 5 days, read-out: MIA-PaCa2 IC50
pIC50: −log10 of the molar value.
Short version: pIC50 at least 7 is true (1), less is false (0).

[[record]]
compound = "C=CC(=O)N1CCN2c3c(c(=O)n(-c4c(C5CC5)ncnc4C4CC4)c4nc(-c5c(F)cccc5OC)c(F)cc34)N(C)C(=O)[C@H]2C1 [Compound Z32]"
cat = "false (0)"

[[record]]
compound = "C=CC(=O)N1CCN2c3c(c(=O)n(-c4c(C)ccnc4C(C)C)c4nc(-c5c(O)cccc5F)c(Cl)cc34)NC(=O)[C@H]2C1 (single isomer, unassigned) [Compound Z24-2]"
cat = "true (1)"

[[record]]
compound = "C=CC(=O)N1CC2C(=O)N(C)c3c(c4cc(F)c(-c5c(O)cccc5F)nc4n(-c4c(C(F)(F)F)ccnc4C(C)C)c3=O)N2C[C@H]1C (single isomer, unassigned) [Compound Z49-1]"
cat = "true (1)"


###

# assay: Pharmacokinetic evaluation on mice, intravenous administration (Test Example 6)
# Format: in vivo
# appliedConditions: mouse, plasma; male CD-1 mice, IV 2 mg/kg; read-out: Vd (volume of distribution)
We begin with a simple list: items and their reported Vd.
metric: Vd (L/kg)

[[record]]
molecule = "C=CC(=O)N1CCN2c3c(c(=O)n(-c4c(C(C)C)ncnc4C(C)C)c4nc(-c5c(O)cccc5F)c(Cl)cc34)N(C)C(=O)[C@H]2C1"
unitannotation = "L/kg"
testvalue = 1.66

[[record]]
molecule = "C=CC(=O)N1CCN2c3c(c(=O)n(-c4c(C)ccnc4C(C)C)c4nc(-c5c(O)cccc5F)c(F)cc34)N(C)C(=O)[C@H]2C1 (single isomer, unassigned)"
unitannotation = "L/kg"
testvalue = 0.326

[[record]]
molecule = "C=CC(=O)N1C[C@@H]2C(=O)N(C)c3c(c4cc(F)c(-c5c(O)cccc5F)nc4n(-c4c(C)ccnc4C(C)C)c3=O)N2C[C@H]1C (single isomer, unassigned)"
unitannotation = "L/kg"
testvalue = 1.06

[[record]]
molecule = "C=CC(=O)N1CCN2c3c(c(=O)n(-c4c(C)ccnc4C(C)C)c4nc(-c5c(O)cccc5F)c(Cl)cc34)N(C)C(=O)[C@H]2C1 (single isomer, unassigned)"
unitannotation = "L/kg"
testvalue = 0.661

[[record]]
molecule = "C=CC(=O)N1C[C@@H]2C(=O)N(C)c3c(c4cc(Cl)c(-c5c(O)cccc5F)nc4n(-c4c(C)ccnc4C(C)C)c3=O)N2C[C@H]1C (single isomer, unassigned)"
unitannotation = "L/kg"
testvalue = 0.777


###

# Test system: NCI-H358 cells with Kras G12C mutation
# assay: Cell proliferation inhibition experiment, 3D spheroid, CellTiter-Glo (Test Example 1)
# Assay type: cell-based, human
# appliedConditions: 5 days
metric: log10 IC50 (log10 of the value in nM)

[[record]]
compound = "C=CC(=O)N1CCN2c3c(c(=O)n(-c4c(C)ccnc4C(C)C)c4nc(-c5c(O)cccc5F)c(Cl)cc34)N(C)C(=O)[C@H]2C1 (single isomer, unassigned) [Compound Z25-1]"
metric = "log10 IC50"
testvalue = 1.70

[[record]]
compound = "[2H]C([2H])([2H])N1C(=O)[C@H]2CN(C(=O)C=C)CCN2c2c1c(=O)n(-c1c(C(C)C)ncnc1C(C)C)c1c(F)c(-c3c(O)cccc3F)c(Cl)cc21 (single isomer, unassigned) [Compound Z39-2]"
metric = "log10 IC50"
testvalue = 2.50

[[record]]
compound = "C=CC(=O)N1C[C@@H]2C(=O)N(C)c3c(c4cc(Cl)c(-c5c(O)cccc5F)nc4n(-c4c(C)ccnc4C(C)C)c3=O)N2C[C@H]1C (single isomer, unassigned) [Compound Z27-2]"
metric = "log10 IC50"
testvalue = 0.00

[[record]]
compound = "[2H]C([2H])([2H])N1C(=O)[C@H]2CN(C(=O)C=C)CCN2c2c1c(=O)n(-c1c(C)ccnc1C(C)C)c1nc(-c3c(O)cccc3F)c(Cl)cc21 (single isomer, unassigned) [Compound Z26-1]"
metric = "log10 IC50"
testvalue = 1.62

[[record]]
compound = "C=CC(=O)N1CCN2c3c(c(=O)n(-c4c(C)ccnc4C(C)C)c4nc(-c5c(O)cccc5F)c(F)cc34)OC[C@H]2C1 (single isomer, unassigned) [Compound Z1-2]"
metric = "log10 IC50"
testvalue = 2.30

